# TEST_TARGET: T1, 4H3974-AA
# T1 chain: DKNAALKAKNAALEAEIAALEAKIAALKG
# EXPERIMENT: two-hybrid library CCmax;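 also: natural log of median RNA to DNA barcode read ratio; higher means stronger binding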
# SETTINGS: mean of both orientations
The entries below are paired with their reported interaction score.
Please reply with the value in numeric form only.

Some binders with recorded interaction score:
{"columns": ["BINDER", "interaction score"],
 "data": [
  ["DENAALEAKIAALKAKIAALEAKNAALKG [4H1384-AA]", 0.121],
  ["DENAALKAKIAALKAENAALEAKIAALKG [4H1878-AA]", -1.23],
  ["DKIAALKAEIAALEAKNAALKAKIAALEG [4H2621-AA]", -0.826],
  ["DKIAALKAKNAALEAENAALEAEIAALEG [4H2961-AA]", -1.82],
  ["DKNAALEAEIAALEAENAALEAKIAALKG [4H3094-AA]", -0.861]
]}

Lookup: // query interaction score value for entry DKIAALKAKNAALEAEIAALEAENAALEG [4H2947-AA]
Found: -1.36

Lookup: // query interaction score value for entry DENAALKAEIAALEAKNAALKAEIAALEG [4H1593-AA]
Found: -1.15
